biological target: T1, wild type human CD47 (Acro Biosystems, cat. no. CD7-H5227) (human, UniProt Q08722 19-139); assay: SPR, IgG captured, CD47 in flow; exp 2;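 note: rates derived from association and dissociation curves, KD estimated from them, C33G mutein used to avoid CD47 IgV homodimers for true monovalent affinity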
T1 construct: Bought protein used as SPR analyte; also called Human CD47 wt; wild-type CD47
T1 sequence (Q08722 19-139 limits assumed): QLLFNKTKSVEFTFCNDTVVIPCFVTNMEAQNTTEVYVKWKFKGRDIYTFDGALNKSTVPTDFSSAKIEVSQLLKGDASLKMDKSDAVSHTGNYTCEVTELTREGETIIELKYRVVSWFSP
assayMetric: koff

Known results for binders:
{"binder": "108VH10.Ma / 108VL10.M1 (antibody, V domains shown, 4D5-framework series; constant regions not restated for this series; also called VH10.Ma VL10.M1) VH: EVQLVESGGGLVQPGGSLRLSCAASGFTFSHHWIHWVRQAPGKGLEWVAMIDPSDSETRLSQKFKDRFTISADTSKNTAYLQMNSLRAEDTAVYYCSRLGRYYFDYWGQGTLVTVSS VL: DIQMTQSPSSLSASVGDRVTITCRASENVGTYISWYQQKPGKAPKLLIYGASNRYTGVPSRFSGSRSGTDFTLTISSLQPEDFATYYCGESYGHLYTFGQGTKVEIK", "result": "0.002 s⁻¹"}
{"binder": "108VH10 / 108VL10.Md (antibody, V domains shown, 4D5-framework series; constant regions not restated for this series; also called VH10 VL10.Md) VH: EVQLVESGGGLVQPGGSLRLSCAASGYSFTHHWIHWVRQAPGKGLEWVAMIDPSDSETRLSQKFKDRFTISADTSKNTAYLQMNSLRAEDTAVYYCSRLGRYYFDYWGQGTLVTVSS VL: DIQMTQSPSSLSASVGDRVTITCRASENVGTYISWYQQKPGKAPKLLIYGASNRYSGVPSRFSGSRSGTDFTLTISSLQPEDFATYYCGESYGHLYTFGQGTKVEIK", "result": "0.0016 s⁻¹"}
{"binder": "108VH10.Mf / 108VL10.M1 (antibody, V domains shown, 4D5-framework series; constant regions not restated for this series; also called VH10.Mf VL10.M1) VH: EVQLVESGGGLVQPGGSLRLSCAASGYSFTHHWIHWVRQAPGKGLEWVAMIDPSDSETRLVDSVKGRFTISADTSKNTAYLQMNSLRAEDTAVYYCSRLGRYYFDYWGQGTLVTVSS VL: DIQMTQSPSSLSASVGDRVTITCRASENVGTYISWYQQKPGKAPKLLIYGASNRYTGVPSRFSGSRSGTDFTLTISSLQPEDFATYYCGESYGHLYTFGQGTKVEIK", "result": "0.0071 s⁻¹"}

Now for a further binder.
[ask] I have this binder here, 108VH4.M4-VL1.M1 (antibody, V domains shown, also called original humanized 108C10A6 antibody) VH: EVQLVQSGAEVKKPGSSVKVSCKASGYSFTHHWIHWVRQAPGQGLEWMGMIDASDSETRLSQKFKDRVTITADKSTSTAYMELSSLRSEDTAVYYCARLGRYYFDYWGQGTTVTVSS VL: EIVLTQSPATLSLSPGERATLSCRASENVGTYISWYQQKPGQAPRLLIYGASNRYTGIPARFSGSGSGTDFTLTISSLEPEDFAVYYCGESYGHLYTFGGGTKVEIK , and I need its recorded koff.
[reply] 0.00046 s⁻¹

// provenance: patent US20260132197A1
